# subjectOfTest: his-labeled human IL-13 (immunogen A) (human) (UniProt P35225)
# methodSummary: cell-based or functional assay
endpointLabel: TARC (pg/mL), A549 cells + IL-13 5 ng/mL + TNFα; antibody at 0.11 nM
Write the answer as a number in pg/mL, unit excluded.

So, 29D9H8 (lead antibody, mouse hybridoma) (antibody, V domains shown, Mouse monoclonal antibody purified from hybridoma supernatant on Protein G) VH: QVQLQQSGAELVRPGASVTLSCKASGYTFTDYEMHWVKQTPVHGLEWIGGIDPETGGTASNQKFKGKAILTADKSSSTAYMELRSLTSEDSAVYYCTSGDYFGGGPFAYWGQGTLVTVSA VL: DIKMTQSPSSMYASLGERVTITCKASQDINSYLSWFQQKPGKSPKTLIYRANRLVDGVPSRFSGSGSGQDYSLTISSLDYEDMGIYYCLQYDEFPYTFGGGTKLEIK ? Its TARC (pg/mL), A549 cells + IL-13 5 ng/mL + TNFα; antibody at 0.11 nM was 1300
